All values here come from ChEMBL document CHEMBL5154916.

Consider the following molecules and their measured Cmax readings.
- PROTOCOL_DETAILS: Cmax in Wistar rat total plasma at 1 mg/kg, po by HPLC-MS/MS analysis
- Type: ADME, organism-based
- Set-up: dose 1 mg/kg, route po

STRUCTURE | Cmax [ng/mL]
CC(=O)N1CCc2nc(OCc3c(C)nnn3-c3ccc(F)cc3)ccc2C1 | 21.4
CC(=O)N1Cc2ccc(OCc3c(C)nnn3-c3ccc(F)cc3)nc2C1 | 47.6
Cc1onc(-c2ccc(F)cc2)c1COc1ccc2c(n1)CCN(C(=O)CS(C)(=O)=O)C2 | 115

---

- SUBJECT_OF_TEST: GABA-A receptor; alpha-5/beta-3/gamma-2 (Homo sapiens) (UniProt P18507+P28472+P31644)
- PROTOCOL_DETAILS: Negative allosteric modulation activity at human recombinant alpha5beta3gamma2 GABAA receptor stably expressed in HEK293 cells assessed as modulation at alpha5 subunit at 10 uM by Patch clamp method
- Type: cell-based
- STUDY_CONDITIONS: filed as negative allosteric modulator
Measured Activity of individual entries

COMPOUND | UNIT_OF_MEASUREMENT | Activity
Cc1onc(-c2ccc(F)cc2)c1COc1ccc2c(n1)CCN(Cc1ccno1)C2=O | % | -35
Cc1onc(-c2ccc(F)cc2)c1COc1ccc2c(n1)CCN(CCS(C)(=O)=O)C2=O | % | -46
Cc1onc(-c2ccc(F)cc2)c1COc1ccc2c(n1)CCN(C1CCOC1)C2=O (stereo not given) | % | -39
Cc1onc(-c2ccc(F)cc2)c1COc1ccc2c(n1)CCN(C(=O)CS(C)(=O)=O)C2 | % | -39
Cc1onc(-c2ccc(F)cc2)c1COc1ccc2c(n1)CCN(C(=O)N1CCOCC1)C2 | % | -39
